test: Rat biodistribution of Tc-99m complexes from isolated stereoisomers (Example 24); conditions: (a) diastereoisomers; 1 hr pi; rats; mean from 3 animals
Parameter: % id/organ, Brain. Scope: all listed entries.
measured-quantity: % id/organ, Brain (% id/organ)

>>> print(df.to_string())
                                   molecule  measured_quantity  reported_value
0  CC(=NO)[C@H](C)NCC(C)(C)CN[C@H](C)C(C)=NO  % id/organ, Brain             0.7
1  CC(=NO)[C@H](C)NCC(C)(C)CN[C@@H](C)C(C)=NO (relative stereo) [Compound 1 d1]  % id/organ, Brain             1.6
2  CC(=NO)[C@H](C)NCCCN[C@@H](C)C(C)=NO (relative stereo) [Compound 2 d1]  % id/organ, Brain             1.5
3       CC(=NO)[C@H](C)NCCCN[C@H](C)C(C)=NO  % id/organ, Brain             1.4

----------
test: Rat biodistribution of Tc-99m complexes from isolated stereoisomers (Example 24); settings: (a) diastereoisomers; 2 mins pi; rats; mean from 3 animals
measured-quantity: % id/organ, Heart (% id/organ)

>>> df
                                   compound  reported_value
0  CC(=NO)[C@H](C)NCC(C)(C)CN[C@H](C)C(C)=NO [Compound 1 meso]             0.6
1  CC(=NO)[C@H](C)NCCCN[C@H](C)C(C)=NO [Compound 2 meso]             0.6
2  CC(=NO)[C@H](C)NCC(C)(C)CN[C@@H](C)C(C)=NO (relative stereo) [Compound 1 d1]             1.2
3  CC(=NO)[C@H](C)NCCCN[C@@H](C)C(C)=NO (relative stereo) [Compound 2 d1]             1.1

----------
Overview of recorded % id/organ, Liver for various compounds
assay: Animal biodistribution of Tc-99m complexes of ligands, no separation of stereoisomers (Example 22); type: in vivo, rats; conditions: 2 min pi; i.v. rats; mean of 3 animals
measured-quantity: % id/organ, Liver (% id/organ)

>>> print(df.to_string())
                                   compound  reported_value
0  CCC(NCCCNC(CC)C(C)=NO)C(C)=NO (stereo not drawn) [Compound 3]            27.8
1  CC(C)C(=NO)C(C)NCCCNC(C)C(=NO)C(C)C (stereo not drawn) [Compound 13]            15.9
2  CC(=NO)C(NCCCNC(C(C)=NO)c1ccccc1)c1ccccc1 (stereo not drawn) [Compound 10]            32.9
3  CCC(CC)(CNC(C)C(C)=NO)CNC(C)C(C)=NO (stereo not drawn) [Compound 7]            20.6
4  CC(=NO)C(C)NCC(C)(C)CNC(C)C(C)=NO (racemic) [Compound 1]             8.4
5  CCC(=NO)C(C)NCC(C)(C)CNC(C)C(CC)=NO (stereo not drawn) [Compound 6]            19.6

----------
experiment: Animal biodistribution of Tc-99m complexes of ligands, no separation of stereoisomers (Example 22); format: in vivo, rats; conditions: 2 min pi; i.v. rats; mean of 3 animals
# % id/organ, Liver listing for each entry below
measured-quantity: % id/organ, Liver (% id/organ)

>>> print(df.to_string())
                                   molecule  measured_quantity  reported_value
0  CCC(=NO)C(C)NCCCNC(C)C(CC)=NO (centres unmarked)  % id/organ, Liver            15.6
1  CC(=NO)C(C)NC(C)CC(C)NC(C)C(C)=NO (centres unmarked)  % id/organ, Liver            23.9
2  CCCC(=NO)C(C)NCCCNC(C)C(CCC)=NO (centres unmarked)  % id/organ, Liver            18.0
3  CC(=NO)C(C)NCC(C)CNC(C)C(C)=NO (centres unmarked)  % id/organ, Liver            12.3
4     CC(=NO)C(C)NCCCNC(C)C(C)=NO (racemic)  % id/organ, Liver            10.9

----------
# key: entry, value: % id/organ, Blood
assay: Rat biodistribution of Tc-99m complexes from isolated stereoisomers (Example 24); conditions: (a) diastereoisomers; 2 mins pi; rats; mean from 3 animals
measured-quantity: % id/organ, Blood (% id/organ)

>>> df
                                   compound  reported_value
0  CC(=NO)[C@H](C)NCC(C)(C)CN[C@@H](C)C(C)=NO (relative stereo) [Compound 1 d1]            11.0
1  CC(=NO)[C@H](C)NCC(C)(C)CN[C@H](C)C(C)=NO [Compound 1 meso]             5.0
2  CC(=NO)[C@H](C)NCCCN[C@H](C)C(C)=NO [Compound 2 meso]             6.9
3  CC(=NO)[C@H](C)NCCCN[C@@H](C)C(C)=NO (relative stereo) [Compound 2 d1]            10.5

----------
test: Animal biodistribution of Tc-99m complexes of ligands, no separation of stereoisomers (Example 22); assay type: in vivo, rats; conditions: 2 min pi; i.v. rats; mean of 3 animals
Assign class by % id/organ, Blood: not lower than 10 % id/organ means satisfied; lower than 10 % id/organ means not satisfied.

                                    compound          label
 0  CCC(NCCCNC(CC)C(C)=NO)C(C)=NO (centres unmarked)  not satisfied
 1  CCC(=NO)C(C)NCCCNC(C)C(CC)=NO (centres unmarked)      satisfied
 2  CCC(=NO)C(C)NCC(C)(C)CNC(C)C(CC)=NO (centres unmarked)  not satisfied
 3  CC(=NO)C(C)NCC(C)CNC(C)C(C)=NO (centres unmarked)      satisfied
 4     CC(=NO)C(C)NCCCNC(C)C(C)=NO (racemic)      satisfied
 5  CC(=NO)C(C)NCC(C)(C)CNC(C)C(C)=NO (racemic)      satisfied
 6  CC(=NO)C(C)NC(C)CC(C)NC(C)C(C)=NO (centres unmarked)  not satisfied
 7  CC(=NO)C(NCCCNC(C(C)=NO)c1ccccc1)c1ccccc1 (centres unmarked)      satisfied
 8  CCC(CC)(CNC(C)C(C)=NO)CNC(C)C(C)=NO (centres unmarked)  not satisfied
 9  CCCC(=NO)C(C)NCCCNC(C)C(CCC)=NO (centres unmarked)      satisfied
10  CC(C)C(=NO)C(C)NCCCNC(C)C(=NO)C(C)C (centres unmarked)      satisfied

----------
test: Animal biodistribution of Tc-99m complexes of ligands, no separation of stereoisomers (Example 22); format: in vivo, rats; conditions: 2 min pi; i.v. rats; mean of 3 animals
measured-quantity: % id/organ, Heart (% id/organ)

>>> df
                                   compound  measured_quantity  output_unit  reported_value
0  CC(=NO)C(C)NCC(C)CNC(C)C(C)=NO (stereo not shown) [Compound 11]  % id/organ, Heart   % id/organ             0.8
1  CC(=NO)C(C)NCC(C)(C)CNC(C)C(C)=NO (racemic) [Compound 1]  % id/organ, Heart   % id/organ             0.4
2  CC(=NO)C(NCCCNC(C(C)=NO)c1ccccc1)c1ccccc1 (stereo not shown) [Compound 10]  % id/organ, Heart   % id/organ             0.5
3  CCC(=NO)C(C)NCC(C)(C)CNC(C)C(CC)=NO (stereo not shown) [Compound 6]  % id/organ, Heart   % id/organ             0.4
